settings: in methanol, 313.15 K
Readout Type: solubility (mole fraction)
Answer as a number with no unit attached.

Give me measured solubility (mole fraction), please, for this molecule: CC1=NN(c2ccc(C)cc2)C(=O)C1
0.0506

----------
details: in n-butanol, 298.15 K
Readout Type: solubility (mole fraction)
Keep it simple and answer with nothing but the number.

For CC1=NN(c2ccc(C)cc2)C(=O)C1 , write its solubility (mole fraction).
0.0377

----------
conditions: in ethylbenzene, 300.65 K
Readout Type: solubility (mole fraction)

Respond only with solubility (mole fraction) recorded for CC1=NN(c2ccc(C)cc2)C(=O)C1
0.0253

----------
conditions: in 1,4-dioxane, 288.15 K
Readout Type: solubility (mole fraction)

Return reported solubility (mole fraction). Input compound: CC1=NN(c2ccc(C)cc2)C(=O)C1
0.0399

----------
conditions: in ethyl acetate, 293.15 K
Readout Type: solubility (mole fraction)
Lab note: jot the number down without any unit.

Consider the molecule CC1=NN(c2ccc(C)cc2)C(=O)C1 . State its measured solubility (mole fraction).
0.0294

----------
conditions: in n-butanol, 295.65 K
Readout Type: solubility (mole fraction)

Name the recorded solubility (mole fraction) of the compound listed here: CC1=NN(c2ccc(C)cc2)C(=O)C1
0.0349

----------
conditions: in methanol, 290.65 K
Readout Type: solubility (mole fraction)
The reply should be a number, written without any unit.

Give reported solubility (mole fraction) value for CC1=NN(c2ccc(C)cc2)C(=O)C1
0.024

----------
details: in ethylbenzene, 295.65 K
Readout Type: solubility (mole fraction)
Reply with just the number.

Tell us which solubility (mole fraction) value is on record for CC1=NN(c2ccc(C)cc2)C(=O)C1
0.0211

----------
details: in ethylbenzene, 288.15 K
Readout Type: solubility (mole fraction)
Respond numerically, and do not add a unit to the figure.

Read off the recorded solubility (mole fraction) for CC1=NN(c2ccc(C)cc2)C(=O)C1
0.016

----------
conditions: in ethyl acetate, 290.65 K
Readout Type: solubility (mole fraction)
Simply state the number, no unit and no words.

Report measured solubility (mole fraction); entry is CC1=NN(c2ccc(C)cc2)C(=O)C1
0.0271

----------
conditions: in isopentanol, 313.15 K
Readout Type: solubility (mole fraction)
Write the number on its own, no unit after it.

Return value of solubility (mole fraction) for input CC1=NN(c2ccc(C)cc2)C(=O)C1 , no commentary.
0.106

----------
settings: in isopentanol, 300.65 K
Readout Type: solubility (mole fraction)
Provide a numeric answer; units are not to be included.

Tell me measured solubility (mole fraction) for CC1=NN(c2ccc(C)cc2)C(=O)C1 please.
0.0705

----------
conditions: in cyclohexane, 290.65 K
Readout Type: solubility (mole fraction)

Look up and report measured solubility (mole fraction) for this entry: CC1=NN(c2ccc(C)cc2)C(=O)C1
0.000714

----------
conditions: in isopentanol, 308.15 K
Readout Type: solubility (mole fraction)
Hey, just send me the number, nothing else.

Output solubility (mole fraction) of CC1=NN(c2ccc(C)cc2)C(=O)C1
0.0906

----------
settings: in ethanol, 298.15 K
Readout Type: solubility (mole fraction)
No unit in the answer, only the number.

Let me know recorded solubility (mole fraction) for CC1=NN(c2ccc(C)cc2)C(=O)C1 , thanks.
0.0294

----------
details: in n-butanol, 308.15 K
Readout Type: solubility (mole fraction)
Keep it simple and answer with nothing but the number.

Please report solubility (mole fraction) for the following compound: CC1=NN(c2ccc(C)cc2)C(=O)C1
0.0518
